The origin of these recorded values is patent US20230212549A1.

Give measured tissue uptake at 0.25 h for each item. Keep answers brief.
- MEASUREMENT DESCRIPTION: in vivo
- MEASUREMENT PARAMETERS: female, athymic nude, mouse, kidneys, iv, uptake Kidneys 0.25 h, ^68Ga-labeled; PET/CT; 0.25 h post tracer injection
Numbered stars: 1 amine (or outer) side, 2 acyl side, 3 side chain; on linkers, the order of the positions; unused ones are H or OH. Bridge positions count the residues as written; N and C are the ends. Square brackets hold non-standard residues; d marks the D form. Peptide text beside a SMILES is read from it. * marks the point of attachment. ξ: configuration not given here. X7 = O=C(CCP(=O)(O)CN1CCN(CP(=O)(O)CO)CCN(CP(=O)(O)CO)CC1)NCCSCc1cc(C[*:1])cc(C[*:2])c1; X11 = O=C(O)CN1CCN(CC(=O)O)CCN(C(CCC(=O)NCCSCc2cc(C[*:1])cc(C[*:2])c2)C(=O)O)CC1; CO = O=C([*:1])[*:2]; ξC = NC(CS)C(=O)O; NHBu = CCCCN*
Could you give the number and then its unit, please?

Record summary for CCCCNC(=O)N[C@H]1CSCc2cc(CSCCNC(=O)CCC(C(=O)O)N3CCN(CC(=O)O)CCN(CC(=O)O)CC3)cc(c2)CSCC(C(=O)O)NC(=O)[C@H](Cc2ccccc2)NC(=O)[C@H](CCC(=O)O)NC(=O)[C@H]([C@@H](C)O)NC(=O)[C@@H]2CCCN2C(=O)[C@@H]2CCCN2C1=O (stereo partly drawn) [3BP-4724] ({NHBu-CO}-CPPTEF[ξC]-OH; linker 1-7 via X11) : reported tissue uptake at 0.25 h = 4.28 %ID/g

Record summary for CCCCNC(=O)N[C@H]1CSCc2cc(CSCCNC(=O)CCP(=O)(O)CN3CCN(CP(=O)(O)CO)CCN(CP(=O)(O)CO)CC3)cc(c2)CSCC(C(=O)O)NC(=O)[C@H](Cc2ccccc2)NC(=O)[C@H](CCC(=O)O)NC(=O)[C@H]([C@@H](C)O)NC(=O)[C@@H]2CCCN2C(=O)[C@@H]2CCCN2C1=O (stereo partly drawn) [3BP-4778] ({NHBu-CO}-CPPTEF[ξC]-OH; linker 1-7 via X7) : reported tissue uptake at 0.25 h = 3.38 %ID/g

Record summary for CCCCNC(=O)N[C@H]1CSCc2cc(CSCCNC(=O)CCP(=O)(O)CN3CCN(CP(=O)(O)CO)CCN(CP(=O)(O)CO)CC3)cc(c2)CSCC(C(=O)O)NC(=O)[C@H](Cc2ccccc2)NC(=O)[C@H](CCC(N)=O)NC(=O)[C@H]([C@@H](C)O)NC(=O)[C@@H]2CCCN2C(=O)[C@@H]2CCCN2C1=O (stereo partly drawn) : reported tissue uptake at 0.25 h = 18.4 %ID/g

* * *

- ASSAY SYSTEM: Human recombinant FAP (Homo sapiens, UniProt Q12884)
- Sequence (Q12884 whole entry): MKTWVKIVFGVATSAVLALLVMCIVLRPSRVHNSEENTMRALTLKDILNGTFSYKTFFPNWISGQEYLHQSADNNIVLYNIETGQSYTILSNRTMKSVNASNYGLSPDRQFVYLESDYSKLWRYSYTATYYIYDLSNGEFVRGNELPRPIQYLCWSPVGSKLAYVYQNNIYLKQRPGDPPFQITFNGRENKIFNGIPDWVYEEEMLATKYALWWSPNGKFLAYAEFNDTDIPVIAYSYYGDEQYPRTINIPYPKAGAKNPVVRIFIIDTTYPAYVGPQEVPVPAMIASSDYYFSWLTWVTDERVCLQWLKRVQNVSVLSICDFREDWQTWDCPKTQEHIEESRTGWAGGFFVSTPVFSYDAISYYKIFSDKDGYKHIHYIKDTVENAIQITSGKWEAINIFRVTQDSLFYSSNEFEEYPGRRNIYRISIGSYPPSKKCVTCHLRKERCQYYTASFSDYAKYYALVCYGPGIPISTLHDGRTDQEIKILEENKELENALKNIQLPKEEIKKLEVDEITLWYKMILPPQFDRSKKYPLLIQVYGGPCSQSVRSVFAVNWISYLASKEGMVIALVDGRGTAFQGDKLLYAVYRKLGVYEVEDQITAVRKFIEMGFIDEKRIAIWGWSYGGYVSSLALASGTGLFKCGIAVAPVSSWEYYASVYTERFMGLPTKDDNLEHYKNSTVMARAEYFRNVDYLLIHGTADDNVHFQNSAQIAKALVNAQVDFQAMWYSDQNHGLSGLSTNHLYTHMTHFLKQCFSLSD
- MEASUREMENT DESCRIPTION: FRET-based FAP protease activity assay
- Type: biochemical
- Set-up: purchased R&D systems 3715-SE
- MEASUREMENT PARAMETERS: pIC50 Category (Activity), FRET-based FAP protease activity assay, recombinant human FAP, 37° C.
Numbered stars: 1 amine (or outer) side, 2 acyl side, 3 side chain; on linkers, the order of the positions; unused ones are H or OH. Bridge positions count the residues as written; N and C are the ends. Square brackets hold non-standard residues; d marks the D form. Peptide text beside a SMILES is read from it. * marks the point of attachment. DOTA = O=C(O)CN1CCN(CC(=O)O)CCN(CC(=O)*)CCN(CC(=O)O)CC1; mXylylene = c1cc(C[*:1])cc(C[*:2])c1; NMeF = CN[C@@H](Cc1ccccc1)C(=O)O; Inp = O=C(O)C1CCNCC1
PARAMETER: IC50

IC50 of C[C@@H](O)[C@@H]1NC(=O)[C@@H]2CCCN2C(=O)[C@@H]2CCCN2C(=O)[C@@H](NC(=O)C2CCN(C(=O)CN3CCN(CC(=O)O)CCN(CC(=O)O)CCN(CC(=O)O)CC3)CC2)CSCc2cccc(c2)CSC[C@@H](C(=O)N[C@@H](CC(=O)O)C(=O)N[C@@H](Cc2c[nH]cn2)C(=O)N(C)[C@@H](Cc2ccccc2)C(=O)N[C@@H](CCCNC(=N)N)C(=O)N[C@@H](CC(=O)O)C(N)=O)NC(=O)[C@H](Cc2ccccc2)NC(=O)[C@H](CCC(=O)O)NC1=O [3BP-3265] ({DOTA-Inp}-CPPTEFCDH[NMeF]RD-NH2; linker 1-7 via mXylylene) , assay on Human recombinant FAP (Homo sapiens, UniProt Q12884), is 0.1 to 0.794 µM
